- Test system: NCI-H322M
- assay_explanation: Cytotoxicity against human NCI-H322M cells assessed as cellular growth at 10 uM by SRB assay
- Format: functional
experimental_readout: Activity (%)
# number only, unit % dropped from output

// assay NCI-H322M, entry "COc1cccc(C(=O)Nc2nc3ccc(Cl)cc3s2)c1" , Activity value = 104.25

// assay NCI-H322M, entry "Clc1ccc(-c2nc(-c3cccs3)no2)cc1" , Activity value = 113.5

// assay NCI-H322M, entry "CC1(C)CC(=O)c2cc3c(N)c(C(=O)Nc4ccccc4Cl)sc3nc2C1" , Activity value = 131.48

// assay NCI-H322M, entry "Cc1ccc(C2=N/C(=C\c3ccccc3)C(=O)O2)cc1" , Activity value = 114.1

// assay NCI-H322M, entry "Nc1c(C(=O)Nc2ccccc2F)sc2nc3c(cc12)C(=O)CCC3" , Activity value = 68.76

// assay NCI-H322M, entry "COc1ccc2nc(NC(=O)c3ccc(F)cc3)sc2c1" , Activity value = 75.75
